What t½ was measured for each of the following?
- Assay comment: Pharmacokinetics of VCD stereoisomers in plasma after single oral dose of racemic valnoctamide to healthy subjects
- Type: in vivo, human
- Setup conditions: Mean ± SD of seven healthy subjects; single oral 400 mg racemic VCD
The answer is to be given in h; state only the numeric part.

Request: Annotate the molecule CCC(C)C(CC)C(N)=O (single isomer, unassigned; stereoisomer b) [Stereoisomer B] with its measured t½.
Result: 5.8

Request: Annotate the molecule CCC(C)C(CC)C(N)=O (single isomer, unassigned; stereoisomer a) [Stereoisomer A] with its measured t½.
Result: 10.2

Request: Annotate the molecule CCC(C)C(CC)C(N)=O (single isomer, unassigned; stereoisomer c) [Stereoisomer C] with its measured t½.
Result: 10.3

Request: Annotate the molecule CCC(C)C(CC)C(N)=O (single isomer, unassigned; stereoisomer d) [Stereoisomer D] with its measured t½.
Result: 10

====

- Assay comment: Pharmacokinetics of VCD stereoisomers in plasma after single oral dose of racemic valnoctamide to epileptic patients
- Format: in vivo, human
- Setup conditions: Mean ± SD of six epileptic patients; single oral 400 mg racemic VCD
What t½ was measured for each of the following?
The answer is to be given in h; state only the numeric part.

Request: Annotate the compound CCC(C)C(CC)C(N)=O (single isomer, unassigned; stereoisomer b) [Stereoisomer B] with its measured t½.
Result: 3.0

Request: Annotate the compound CCC(C)C(CC)C(N)=O (single isomer, unassigned; stereoisomer c) [Stereoisomer C] with its measured t½.
Result: 3.3

Request: Annotate the compound CCC(C)C(CC)C(N)=O (single isomer, unassigned; stereoisomer a) [Stereoisomer A] with its measured t½.
Result: 4.1

Request: Annotate the compound CCC(C)C(CC)C(N)=O (single isomer, unassigned; stereoisomer d) [Stereoisomer D] with its measured t½.
Result: 3.3

====

- Assay comment: Pharmacokinetics of VCD stereoisomers in plasma after single oral dose of racemic valnoctamide to healthy subjects
- Format: in vivo, human
- Setup conditions: Mean ± SD of seven healthy subjects; single oral 400 mg racemic VCD
Reported metric: Cmax (ng/mL)
The answer is to be given in ng/mL; state only the numeric part.

Request: Annotate the compound CCC(C)C(CC)C(N)=O (single isomer, unassigned; stereoisomer c) [Stereoisomer C] with its measured Cmax.
Result: 1600

Request: Annotate the compound CCC(C)C(CC)C(N)=O (single isomer, unassigned; stereoisomer d) [Stereoisomer D] with its measured Cmax.
Result: 1500

Request: Annotate the compound CCC(C)C(CC)C(N)=O (single isomer, unassigned; stereoisomer a) [Stereoisomer A] with its measured Cmax.
Result: 1700

Request: Annotate the compound CCC(C)C(CC)C(N)=O (single isomer, unassigned; stereoisomer b) [Stereoisomer B] with its measured Cmax.
Result: 1300

====

- Assay comment: Pharmacokinetics of VCD stereoisomers in plasma after single oral dose of racemic valnoctamide to epileptic patients
- Type: in vivo, human
- Setup conditions: Mean ± SD of six epileptic patients; single oral 400 mg racemic VCD
What MRT was measured for each of the following?
The answer is to be given in h; state only the numeric part.

Request: Annotate the molecule CCC(C)C(CC)C(N)=O (single isomer, unassigned; stereoisomer c) [Stereoisomer C] with its measured MRT.
Result: 4.8

Request: Annotate the molecule CCC(C)C(CC)C(N)=O (single isomer, unassigned; stereoisomer d) [Stereoisomer D] with its measured MRT.
Result: 4.7

Request: Annotate the molecule CCC(C)C(CC)C(N)=O (single isomer, unassigned; stereoisomer b) [Stereoisomer B] with its measured MRT.
Result: 4.0

Request: Annotate the molecule CCC(C)C(CC)C(N)=O (single isomer, unassigned; stereoisomer a) [Stereoisomer A] with its measured MRT.
Result: 5.4

====

What CL/F was measured for each of the following?
- Assay comment: Pharmacokinetics of VCD stereoisomers in plasma after repeated oral dosing of racemic valnoctamide to epileptic patients
- Type: in vivo, human
- Setup conditions: Mean ± SD of six epileptic patients; repeated oral racemic VCD 200 mg tid, last day
The answer is to be given in L/h; state only the numeric part.

Request: Annotate the molecule CCC(C)C(CC)C(N)=O (single isomer, unassigned; stereoisomer a) [Stereoisomer A] with its measured CL/F.
Result: 21

Request: Annotate the molecule CCC(C)C(CC)C(N)=O (single isomer, unassigned; stereoisomer c) [Stereoisomer C] with its measured CL/F.
Result: 27

Request: Annotate the molecule CCC(C)C(CC)C(N)=O (single isomer, unassigned; stereoisomer b) [Stereoisomer B] with its measured CL/F.
Result: 58

Request: Annotate the molecule CCC(C)C(CC)C(N)=O (single isomer, unassigned; stereoisomer d) [Stereoisomer D] with its measured CL/F.
Result: 29

====

- Assay comment: Pharmacokinetics of VCD stereoisomers in plasma after repeated oral dosing of racemic valnoctamide to epileptic patients
- Assay type: in vivo, human
- Setup conditions: Mean ± SD of six epileptic patients; repeated oral racemic VCD 200 mg tid, last day
What Cmax was measured for each of the following?
The answer is to be given in ng/mL; state only the numeric part.

Request: Annotate the compound CCC(C)C(CC)C(N)=O (single isomer, unassigned; stereoisomer c) [Stereoisomer C] with its measured Cmax.
Result: 800

Request: Annotate the compound CCC(C)C(CC)C(N)=O (single isomer, unassigned; stereoisomer a) [Stereoisomer A] with its measured Cmax.
Result: 900

Request: Annotate the compound CCC(C)C(CC)C(N)=O (single isomer, unassigned; stereoisomer b) [Stereoisomer B] with its measured Cmax.
Result: 400

Request: Annotate the compound CCC(C)C(CC)C(N)=O (single isomer, unassigned; stereoisomer d) [Stereoisomer D] with its measured Cmax.
Result: 600

====

- Assay comment: Pharmacokinetics of VCD stereoisomers in plasma after single oral dose of racemic valnoctamide to epileptic patients
- Type: in vivo, human
- Setup conditions: Mean ± SD of six epileptic patients; single oral 400 mg racemic VCD
What CL/F was measured for each of the following?
The answer is to be given in L/h; state only the numeric part.

Request: Annotate the compound CCC(C)C(CC)C(N)=O (single isomer, unassigned; stereoisomer d) [Stereoisomer D] with its measured CL/F.
Result: 46

Request: Annotate the compound CCC(C)C(CC)C(N)=O (single isomer, unassigned; stereoisomer c) [Stereoisomer C] with its measured CL/F.
Result: 39

Request: Annotate the compound CCC(C)C(CC)C(N)=O (single isomer, unassigned; stereoisomer b) [Stereoisomer B] with its measured CL/F.
Result: 80

Request: Annotate the compound CCC(C)C(CC)C(N)=O (single isomer, unassigned; stereoisomer a) [Stereoisomer A] with its measured CL/F.
Result: 32

====

- Assay comment: Pharmacokinetics of VCD stereoisomers in plasma after single oral dose of racemic valnoctamide to epileptic patients
- Type: in vivo, human
- Setup conditions: Mean ± SD of six epileptic patients; single oral 400 mg racemic VCD
Reported metric: Cmax
In your response, put the unit directly after the numeric value.

Request: Annotate the compound CCC(C)C(CC)C(N)=O (single isomer, unassigned; stereoisomer c) [Stereoisomer C] with its measured Cmax.
Result: 0.7 ± 0.12 mg/L

Request: Annotate the compound CCC(C)C(CC)C(N)=O (single isomer, unassigned; stereoisomer b) [Stereoisomer B] with its measured Cmax.
Result: 0.41 ± 0.12 mg/L

Request: Annotate the compound CCC(C)C(CC)C(N)=O (single isomer, unassigned; stereoisomer d) [Stereoisomer D] with its measured Cmax.
Result: 0.61 ± 0.11 mg/L

Request: Annotate the compound CCC(C)C(CC)C(N)=O (single isomer, unassigned; stereoisomer a) [Stereoisomer A] with its measured Cmax.
Result: 0.78 ± 0.10 mg/L

====

- Assay comment: Pharmacokinetics of VCD stereoisomers in plasma after repeated oral dosing of racemic valnoctamide to epileptic patients
- Type: in vivo, human
- Setup conditions: Mean ± SD of six epileptic patients; repeated oral racemic VCD 200 mg tid, last day
What tmax was measured for each of the following?
The answer is to be given in h; state only the numeric part.

Request: Annotate the molecule CCC(C)C(CC)C(N)=O (single isomer, unassigned; stereoisomer d) [Stereoisomer D] with its measured tmax.
Result: 1.4

Request: Annotate the molecule CCC(C)C(CC)C(N)=O (single isomer, unassigned; stereoisomer c) [Stereoisomer C] with its measured tmax.
Result: 1.4

Request: Annotate the molecule CCC(C)C(CC)C(N)=O (single isomer, unassigned; stereoisomer b) [Stereoisomer B] with its measured tmax.
Result: 1.4

Request: Annotate the molecule CCC(C)C(CC)C(N)=O (single isomer, unassigned; stereoisomer a) [Stereoisomer A] with its measured tmax.
Result: 1.5

====

What CL/F was measured for each of the following?
- Assay comment: Pharmacokinetics of VCD stereoisomers in plasma after single oral dose of racemic valnoctamide to healthy subjects
- Type: in vivo, human
- Setup conditions: Mean ± SD of seven healthy subjects; single oral 400 mg racemic VCD
The answer is to be given in L/h; state only the numeric part.

Request: Annotate the compound CCC(C)C(CC)C(N)=O (single isomer, unassigned; stereoisomer b) [Stereoisomer B] with its measured CL/F.
Result: 8.7

Request: Annotate the compound CCC(C)C(CC)C(N)=O (single isomer, unassigned; stereoisomer c) [Stereoisomer C] with its measured CL/F.
Result: 4.3

Request: Annotate the compound CCC(C)C(CC)C(N)=O (single isomer, unassigned; stereoisomer a) [Stereoisomer A] with its measured CL/F.
Result: 4.2

Request: Annotate the compound CCC(C)C(CC)C(N)=O (single isomer, unassigned; stereoisomer d) [Stereoisomer D] with its measured CL/F.
Result: 4.6
